Assay: Covalent allosteric inhibition of recombinant Escherichia coli beta-glucuronidase using PNPG as substrate incubated for 30 mins by absorbance based microplate reader assay
API: label(entry) gives Yes if the entry's IC50 is strictly smaller than 50 nM; on equality or larger values it gives No.

Solved entries (count: 5):
molecular-string: COC(=O)c1ccc2c(=O)n(-c3cccc4cccnc34)[se]c2c1
class-name: No
--
molecular-string: Cn1cc(-n2[se]c3ccccc3c2=O)cn1
class-name: Yes
--
molecular-string: O=c1c2ccccc2[se]n1-c1ccc(Cl)cc1
class-name: No
--
molecular-string: O=c1c2ccccc2[se]n1-c1cn[nH]c1
class-name: Yes
--
molecular-string: COC(=O)[C@H](CO)n1[se]c2ccccc2c1=O
class-name: Yes

Read the next record carefully.
Q: Find out if reported IC50 for `O=c1c2ccccc2[se]n1-c1nnc(C(F)(F)F)s1` is less than 50 nM
Result: No
